Sourced from patent US20250270343A1

Target: T1, soluble cynomolgus GPNMB (recombinant extracellular domain) (cynomolgus, UniProt Q14956 23-499 (human entry), limits assumed)
T1 chain: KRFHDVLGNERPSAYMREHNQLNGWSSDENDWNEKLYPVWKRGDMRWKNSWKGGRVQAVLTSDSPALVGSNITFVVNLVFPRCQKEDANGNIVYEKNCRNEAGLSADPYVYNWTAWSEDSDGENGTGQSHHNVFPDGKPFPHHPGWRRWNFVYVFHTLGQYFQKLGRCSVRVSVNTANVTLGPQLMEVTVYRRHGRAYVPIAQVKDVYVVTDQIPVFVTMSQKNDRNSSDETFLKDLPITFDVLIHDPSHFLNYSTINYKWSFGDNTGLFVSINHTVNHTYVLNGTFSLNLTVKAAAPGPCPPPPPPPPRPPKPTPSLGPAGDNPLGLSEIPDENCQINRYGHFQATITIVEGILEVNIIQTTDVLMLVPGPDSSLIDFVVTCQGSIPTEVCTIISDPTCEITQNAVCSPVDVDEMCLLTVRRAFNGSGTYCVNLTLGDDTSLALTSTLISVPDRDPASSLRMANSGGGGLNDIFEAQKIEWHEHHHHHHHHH
Test: SPR Biacore, IgG captured
TEST READOUT: Kd (nM)
Please respond with the number in nM and leave the unit unwritten.

// solved cases for Kd follow
BINDER	TEST READOUT	ASSAY RESULT
anti-GPNMB antibody GPN-83 (antibody, V domains shown) VH: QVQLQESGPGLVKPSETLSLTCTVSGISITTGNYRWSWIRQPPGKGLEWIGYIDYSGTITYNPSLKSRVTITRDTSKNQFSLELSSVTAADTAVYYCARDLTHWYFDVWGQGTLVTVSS VL: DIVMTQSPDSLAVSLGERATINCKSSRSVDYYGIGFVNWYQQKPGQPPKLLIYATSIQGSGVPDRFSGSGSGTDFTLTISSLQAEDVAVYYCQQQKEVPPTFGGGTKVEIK	Kd	8.1
anti-GPNMB antibody GPN-82 (antibody, V domains shown) VH: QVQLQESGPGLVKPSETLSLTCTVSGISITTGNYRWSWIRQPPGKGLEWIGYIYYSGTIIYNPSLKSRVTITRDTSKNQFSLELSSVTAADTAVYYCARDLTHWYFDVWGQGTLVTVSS VL: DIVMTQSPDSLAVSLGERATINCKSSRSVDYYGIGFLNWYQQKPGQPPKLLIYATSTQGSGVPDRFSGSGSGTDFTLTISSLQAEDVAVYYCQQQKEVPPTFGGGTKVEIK	Kd	13.5
anti-GPNMB antibody GPN-88 (antibody, V domains shown) VH: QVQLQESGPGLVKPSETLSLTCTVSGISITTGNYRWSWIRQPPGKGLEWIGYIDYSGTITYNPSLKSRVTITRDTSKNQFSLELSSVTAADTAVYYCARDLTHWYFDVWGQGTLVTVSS VL: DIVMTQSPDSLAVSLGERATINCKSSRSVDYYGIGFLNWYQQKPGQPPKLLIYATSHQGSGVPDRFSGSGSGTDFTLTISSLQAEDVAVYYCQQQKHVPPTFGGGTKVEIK	Kd	3.7
anti-GPNMB antibody GPN-87 (antibody, V domains shown) VH: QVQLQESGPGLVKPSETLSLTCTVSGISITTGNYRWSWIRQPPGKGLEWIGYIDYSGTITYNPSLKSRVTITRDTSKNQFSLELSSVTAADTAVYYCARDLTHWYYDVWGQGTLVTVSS VL: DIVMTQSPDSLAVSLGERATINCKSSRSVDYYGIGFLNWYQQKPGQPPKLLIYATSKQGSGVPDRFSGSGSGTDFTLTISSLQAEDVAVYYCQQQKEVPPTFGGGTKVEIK	Kd	6.2

Attention now shifts to the item below.
Q. Report Kd for anti-GPNMB antibody GPN-97 (antibody, V domains shown) VH: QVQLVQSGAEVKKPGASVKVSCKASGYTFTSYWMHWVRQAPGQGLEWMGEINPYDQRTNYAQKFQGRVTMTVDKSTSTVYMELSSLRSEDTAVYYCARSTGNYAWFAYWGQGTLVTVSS VL: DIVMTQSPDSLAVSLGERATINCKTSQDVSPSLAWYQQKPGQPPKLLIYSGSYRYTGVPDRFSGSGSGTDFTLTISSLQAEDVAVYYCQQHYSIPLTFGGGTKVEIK please.
A. 8.2
